- Test system: K562
- ASSAY_DETAILS: Resistance factor, ratio of IC50 for human K562/ADR cells to IC50 for human K562 cells
- Type: functional
OBSERVED_PROPERTY: Ratio IC50
Quick one: just the number, no unit, thanks!

COc1cc([C@@H]2c3cc4c(cc3[C@H](OC(=O)c3ccncc3)[C@H]3COC(=O)[C@H]23)OCO4)cc(OC)c1OC [4-O-PODOPHYLLOTOXINYL-ISONICOTINATE] : 4.363
COc1cc([C@@H]2c3cc4c(cc3[C@H](OC(=O)c3ccc(Br)cn3)[C@H]3COC(=O)[C@H]23)OCO4)cc(OC)c1OC : 8.421

## Input Quick one: Ratio IC50 for "COc1cc([C@@H]2c3cc4c(cc3[C@H](OC(=O)c3cc(Cl)ccn3)[C@H]3COC(=O)[C@H]23)OCO4)cc(OC)c1OC" ?
## Output 3.25

----------
- Tested on: K562
- ASSAY_DETAILS: Resistance factor, ratio of IC50 for human K562/ADR cells to IC50 for human K562 cells
- Assay type: functional
OBSERVED_PROPERTY: Ratio IC50
Could you respond with only the numeric value?

Below, 2 compounds whose answers are already recorded.
COc1cc([C@@H]2c3cc4c(cc3[C@H](OC(=O)c3cccnc3OC)[C@H]3COC(=O)[C@H]23)OCO4)cc(OC)c1OC : 3.085
COc1cc([C@@H]2c3cc4c(cc3[C@H](OC(=O)c3cccc(Br)n3)[C@H]3COC(=O)[C@H]23)OCO4)cc(OC)c1OC : 1.84

## Input Name the reported Ratio IC50 value associated with the compound COc1cc([C@@H]2c3cc4c(cc3[C@H](OC(=O)c3cccnc3)[C@H]3COC(=O)[C@H]23)OCO4)cc(OC)c1OC [4-O-PODOPHYLLOTOXINYL-NICOTINATE]
## Output 4.151

----------
- Test system: K562
- ASSAY_DETAILS: Resistance factor, ratio of IC50 for human K562/ADR cells to IC50 for human K562 cells
- Format: functional
Each entry below lists one item and its recorded Ratio IC50 value.
Note: the reply should be a number with no unit written.

A selection of reference data follows.
COc1cc([C@@H]2c3cc4c(cc3[C@H](O)[C@H]3COC(=O)[C@H]23)OCO4)cc(OC)c1OC : 4.166
COc1cc([C@@H]2c3cc4c(cc3[C@H](OC(=O)c3ccc(Br)nc3)[C@H]3COC(=O)[C@H]23)OCO4)cc(OC)c1OC : 1.347
COc1cc([C@@H]2c3cc4c(cc3[C@H](OC(=O)c3ccnc(Br)c3)[C@H]3COC(=O)[C@H]23)OCO4)cc(OC)c1OC : 2.521
COc1ccc(C(=O)O[C@H]2c3cc4c(cc3[C@@H](c3cc(OC)c(OC)c(OC)c3)[C@H]3C(=O)OC[C@@H]32)OCO4)cn1 : 2.12

// switching to the query compound
## Input Endpoint output: Ratio IC50 of "COc1cc([C@@H]2c3cc4c(cc3[C@H](OC(=O)c3ccnc(Cl)c3)[C@H]3COC(=O)[C@H]23)OCO4)cc(OC)c1OC" . Value?
## Output 2.85
